Measurement target: UniProt P21730
Sequence (P21730 whole entry): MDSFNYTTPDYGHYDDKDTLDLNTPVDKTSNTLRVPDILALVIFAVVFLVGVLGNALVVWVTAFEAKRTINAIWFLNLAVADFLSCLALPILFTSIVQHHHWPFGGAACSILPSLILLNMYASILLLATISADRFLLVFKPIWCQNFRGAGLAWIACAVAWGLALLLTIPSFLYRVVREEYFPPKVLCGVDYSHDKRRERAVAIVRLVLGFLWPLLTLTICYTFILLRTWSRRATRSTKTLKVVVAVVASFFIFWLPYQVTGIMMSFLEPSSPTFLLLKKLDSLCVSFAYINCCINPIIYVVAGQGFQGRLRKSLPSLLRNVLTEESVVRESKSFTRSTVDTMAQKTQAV
Assay remarks: FLIPR assay: inhibition of C5a-mediated calcium mobilization
Test settings: stable cell line over expressing human C5aR & Gα15, human C5a at EC50 (0.1-0.25 nM)
Property name: pIC50
The meaning of pIC50 here: minus log10 of the concentration in molar units.

Identify measured pIC50 corresponding to CO[C@@H]1CCN(c2nc(-c3cccc4[nH]cc(C)c34)nc3c2CN(c2cc(C(C)C)ccc2C)CC3)CC1(C)C
8.70

Quickly give me recorded pIC50 for CO[C@H]1CCN(c2nc(-c3c(C(C)C)ccc4[nH]ncc34)nc3c2CN(c2cc(C(C)C)nn2C)CC3)CC1(C)C
8.30

Return pIC50 (reported value) for this compound: CO[C@H]1CCN(c2nc(-c3cccc4[nH]cc(C)c34)nc3c2CN(c2cc(C(C)C)ccc2C)CC3)CC1(C)C
8.40

# return recorded pIC50 for entry CC(=O)N1CCN(c2nc(-c3cccc4[nH]cc(C)c34)nc3c2CN(c2cc(C4(C)COC4)ccc2C)CC3)[C@H](C)C1
7.70

Given the compound CO[C@H]1CCN(c2nc(-c3c(C)ccc4[nH]nc(C)c34)nc3c2CN(c2cc(C(C)C)ccc2C)CC3)CC1(C)C , write its reported pIC50.
8.70

Supply recorded pIC50 for COc1nc(-c2c(C)ccc3[nH]nc(C)c23)nc2c1CN(c1cc(C(C)C)ccc1C)CC2 here.
8.05

Give pIC50 for Cc1ccc(C(C)C)cc1N1CCc2nc(-c3c(C(C)C)ccc4[nH]ncc34)cc(C)c2C1
8.52

Specify pIC50 for CO[C@H]1CCN(c2nc(-c3c(C)ccc4[nH]nc(Cl)c34)nc3c2CN(c2cc(C(C)C)ccc2C)CC3)CC1(C)C and stop.
8.70

Please list pIC50 recorded for the compound COc1ccc(C)c(N2CCc3nc(-c4c(C)ccc5[nH]ncc45)cc(C)c3C2)c1
7.60

Where these numbers come from: patent US8846656B2
